Target: FGFR4 (Homo sapiens (Human))
Sequence (P22455 22-802): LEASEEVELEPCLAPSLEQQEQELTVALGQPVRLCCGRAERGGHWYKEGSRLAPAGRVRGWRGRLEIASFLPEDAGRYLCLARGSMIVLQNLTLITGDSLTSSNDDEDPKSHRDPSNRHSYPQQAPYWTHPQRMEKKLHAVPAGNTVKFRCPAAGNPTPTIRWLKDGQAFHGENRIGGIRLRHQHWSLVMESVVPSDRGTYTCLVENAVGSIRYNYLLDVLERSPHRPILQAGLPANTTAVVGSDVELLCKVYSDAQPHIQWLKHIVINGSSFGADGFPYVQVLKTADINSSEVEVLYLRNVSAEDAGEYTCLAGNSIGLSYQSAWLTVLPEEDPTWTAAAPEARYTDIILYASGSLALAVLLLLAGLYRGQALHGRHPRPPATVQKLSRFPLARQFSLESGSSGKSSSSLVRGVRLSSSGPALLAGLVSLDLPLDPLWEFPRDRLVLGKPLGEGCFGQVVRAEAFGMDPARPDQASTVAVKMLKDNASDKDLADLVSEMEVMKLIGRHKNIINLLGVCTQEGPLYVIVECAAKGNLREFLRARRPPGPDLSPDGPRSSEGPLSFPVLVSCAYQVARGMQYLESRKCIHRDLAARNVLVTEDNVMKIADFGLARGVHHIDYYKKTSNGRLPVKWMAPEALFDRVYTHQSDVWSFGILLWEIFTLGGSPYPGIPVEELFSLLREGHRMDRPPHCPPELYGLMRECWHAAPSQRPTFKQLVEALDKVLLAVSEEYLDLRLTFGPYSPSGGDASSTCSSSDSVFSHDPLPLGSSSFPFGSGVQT
Test: Kinase assay, binding constants (Kd), kinase-tagged T7 phage, qPCR
parameter-measured: Kd

Consider the worked cases shown below.
compound | Kd
C[C@@H](Oc1cc2c(-c3cnc(N4CC5(C4)CN(S(C)(=O)=O)C5)c(F)c3)n[nH]c2cc1Cl)c1c(Cl)cnnc1Cl [Example 264] | 1 to 20 nM
C[C@@H](Oc1ccc2[nH]nc(-c3cnc(N4CCCC4)c(C#N)c3)c2c1)c1c(Cl)cnc(F)c1Cl [Example 292] | 100 to 300 nM
Cc1ncc(Cl)c([C@@H](C)Oc2ccc3[nH]nc(-c4cnn(C5CCN(C6COC6)CC5)c4)c3c2)c1Cl [Example 94] | 20 to 100 nM
C[C@@H]1CCN1c1ncc(-c2n[nH]c3cc(Cl)c(O[C@H](C)c4c(Cl)cncc4Cl)cc23)cc1C#N [Example 374] | 20 to 100 nM
Cc1ncc(Cl)c([C@@H](C)Oc2cc3c(-c4cnc(N5CCC5)c(F)c4)n[nH]c3cc2Cl)c1Cl [Example 274] | 20 to 100 nM

Continue with the compound presented below.
In: I have this compound here, C[C@@H](Oc1ccc2[nH]nc(-c3ccc(N4CC5(COC5)C4)nc3)c2c1)c1c(Cl)cnnc1Cl [Example 229] , and I need its recorded Kd.
Out: > 300 nM
